SYSTEM_NAME: T1, Rluc-ADGRG2-ΔGPS-β I663A (mouse, UniProt Q8CJ12-3 38-995, I663A)
T1 construct: ADGRG2 (GPR64), mouse, ADGRG2-ΔGPS-β: the entire ECD removed; source: HEK293, transfected, on cells; not shown: Rluc, N-terminal, kept
EXPERIMENT_SUMMARY: FRET or BRET; HEK293 cells transfected with Rluc-ADGRG2-ΔGPS-β WT or mutants, stimulated by increasing concentrations of FITC-conjugated VPM-p15; saturation curves fitted with GraphPad; each experiment repeated 6 times
DETAILS: one partner purified
Non-standard residues stand in square brackets, D forms with d. Primed or numbered codes have the meaning given here. No end group written: not given here. Phe(4-Me) = Cc1ccc(C[C@H](N)C(=O)O)cc1; FITC′ = not defined here
EXPERIMENTAL_ENDPOINT: EC50 (nM)
Answers are plain numbers, in nM.

Identify EC50 associated with the binder VS[Phe(4-Me)]GILLDLSRTSLP-{FITC′} [FITC-conjugated VPM-p15 (ADGRG2 Stachel peptide p15 T1V/F3Phe(4-Me))] 772

Recorded values, source paper PMC7948503.
